B1: DLC1 (parent)
chain: RDAIEALCRRLNTLNKCAVMKLEI

- Variants of: B1
- experimentalDetails: protein stability index of a GFP-peptide fusion (GPS, HEK-293T) (PSI 1-6); higher = more stable;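 note: lentivirally expressed fusions sorted by FACS into six bins by GFP to DsRed ratio, PSI derived from sequencing read proportions per bin multiplied by bin number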
- testContext: c terminus: a fixed tail appended
testReadout: protein stability index

For orientation, consider the following solved cases.
variantDesignation	protein stability index
V19D	2.58
C8F	2.82

Exercise: I have this variant here, `R9F` , and I need its recorded protein stability index.
Solution: 2.45

Exercise: I would be grateful if you could share the reported protein stability index for `K16D` .
Solution: 1.76

Exercise: For the variant shown here, `L22T` , give the reported protein stability index.
Solution: 2.54

Exercise: Form field: reported protein stability index of `L22Q`
Solution: 2.59

Exercise: Please report the recorded protein stability index for `V19A` .
Solution: 3.74

Exercise: Which protein stability index is reported for this variant? `K21S`
Solution: 1.73

Exercise: Query (variant): `A6K` ; field requested: protein stability index
Solution: 2.82

Exercise: // protein stability index lookup, key: `I4R`
Solution: 2.41

Exercise: Look at this variant and give its reported protein stability index. `L14K`
Solution: 1.88

Exercise: Please report the recorded protein stability index for `L7N` .
Solution: 2.5

Exercise: Data request, read-out protein stability index, for `M20H`
Solution: 3.39

Exercise: Which protein stability index value belongs to `T13L` ?
Solution: 2.33

Exercise: If you can, please state the reported protein stability index value of `I4N` .
Solution: 2.4

Exercise: // query protein stability index value for entry `M20K`
Solution: 1.49

Exercise: Need protein stability index of `I24G` , thanks.
Solution: 1.13

Exercise: Give its protein stability index value. Item: `L11P`
Solution: 2.84

Exercise: Could you share which protein stability index value was measured for `K16E` ?
Solution: 2.45

Where do the numbers come from? From the supplement of paper PMC10567573.
